protocol summary: Stability of cannabinoid compounds and Vitamin E components in Beverage 2 (AB Red) by LCMSMS
Assay type: physicochemical
condition context: stored at 21-25° C., 540 days
reported metric: Stability of Plant-Derived Cannabinoid Compounds in AB Red (µg/mL)

{"columns": ["compound", "quantity unit", "value observed"],
 "data": [
  ["CCCCCc1cc(O)c2c(c1)OC(C)(CCC=C(C)C)C=C2 (stereo not drawn)", "µg/mL", 0.28],
  ["CCCCCc1cc(O)c2c(c1)OC(C)(C)c1ccc(C)cc1-2", "µg/mL", 2.65],
  ["CCCc1cc(O)c2c(c1)OC(C)(C)[C@@H]1CCC(C)=C[C@@H]21 [THCV, delta-9-tetrahydrocannabivarin]", "µg/mL", 2.95],
  ["C=C(C)[C@@H]1CCC(C)=C[C@H]1c1c(O)cc(CCCCC)c(C(=O)O)c1O", "µg/mL", 1.57],
  ["CCCCCc1cc(O)c2c(c1)OC(C)(C)[C@@H]1CCC(C)=C[C@@H]21 [D9 THC, delta-9-tetrahydrocannabinol, reference compound]", "µg/mL", 12.2],
  ["CCCCCc1cc(O)c(C/C=C(\\C)CCC=C(C)C)c(O)c1", "µg/mL", 4.49],
  ["C=C(C)[C@@H]1CCC(C)=C[C@H]1c1c(O)cc(CCC)cc1O", "µg/mL", 0.19],
  ["CCCCCc1cc(O)c2c(c1)OC1(C)CCC3C1C2C3(C)C (stereo not drawn)", "µg/mL", 0.47],
  ["CCCCCc1cc2c(c(O)c1C(=O)O)[C@@H]1C=C(C)CC[C@H]1C(C)(C)O2 [D9 THCA, delta-9-tetrahydrocannabinolic acid]", "µg/mL", 1.29]
]}
